Values compiled from ChEMBL document CHEMBL2311424.

Assay: AUClast in bacitracin, neomycin sulfate and tetracycline treated Sprague-Dawley rat at 5 mg/kg, po
Format: ADME, organism-based
Parameters: time 0 - last, dose 5 mg/kg, route oral
Conditions: plasma
TEST_READOUT: AUC(0-t) (µM·h)
Note: unit µM·h is implicit; provide only the numeric part.

Could you please provide reported AUC(0-t) for "O=C(C(=O)N1CCN(C(=O)c2ccccc2)CC1)c1c[nH]c2c(-n3ccnn3)ncc(F)c12" ? Thanks!
13.8

###

Assay: Cmax in Sprague-Dawley rat at 5 mg/kg, po after 6 hrs
Type: ADME, organism-based
Set-up: dose 5 mg/kg, route oral
Details: in vivo
TEST_READOUT: Cmax

Could you please provide reported Cmax for "N[n+]1ccn(-c2ncc(F)c3c(C(=O)C(=O)N4CCN(C(=O)c5ccccc5)CC4)c[nH]c23)n1.O=C([O-])C(F)(F)F" ? Thanks!
23 nM

###

Test: Clearance in beagle dog at 1 mg/kg, iv
Format: ADME, organism-based, Canis lupus familiaris
Design: dose 1 mg/kg, route intravenous
Details: in vivo
TEST_READOUT: clearance (mL/min/kg)
Note: unit mL/min/kg is implicit; provide only the numeric part.

Could you please provide reported clearance for "N[n+]1ccn(-c2ncc(F)c3c(C(=O)C(=O)N4CCN(C(=O)c5ccccc5)CC4)c[nH]c23)n1.[Cl-]" ? Thanks!
13.8

###

Tested on: Rattus norvegicus
Assay: Cmax in Sprague-Dawley rat assessed as BMS-585248 level at 25 mg/kg, po
Type: ADME, organism-based
Set-up: dose 25 mg/kg, route oral
Settings: in vivo
TEST_READOUT: Cmax (µM)
Note: unit µM is implicit; provide only the numeric part.

Could you please provide reported Cmax for "N[n+]1ccn(-c2ncc(F)c3c(C(=O)C(=O)N4CCN(C(=O)c5ccccc5)CC4)c[nH]c23)n1.O=C([O-])C(F)(F)F" ? Thanks!
12

###

Tested on: Rattus norvegicus
Assay: Cmax in dual cannulated portal vein Sprague-Dawley rat assessed as BMS-585248 level at 5 mg/kg, po
Format: ADME, organism-based
Parameters: dose 5 mg/kg, route oral
Details: in vivo
TEST_READOUT: Cmax (nM)
Note: unit nM is implicit; provide only the numeric part.

Please tell me the measured Cmax for "N[n+]1ccn(-c2ncc(F)c3c(C(=O)C(=O)N4CCN(C(=O)c5ccccc5)CC4)c[nH]c23)n1.O=C([O-])C(F)(F)F" ; system: Rattus norvegicus.
2140

###

Assay: Drug excretion in bile duct cannulated Sprague-Dawley rat urine at 1 mg/kg, iv up to 2 hrs
Format: ADME, organism-based
Design: dose 1 mg/kg, route intravenous
Details: read-out: Drug excretion
TEST_READOUT: dose excreted at 2 h (%)
Note: unit % is implicit; provide only the numeric part.

Could you please provide reported dose excreted at 2 h for "CC(=O)N[n+]1ccn(-c2ncc(F)c3c(C(=O)C(=O)N4CCN(C(=O)c5ccccc5)CC4)c[nH]c23)n1" ? Thanks!
16.5

Could you please provide reported dose excreted at 2 h for "N[n+]1ccn(-c2ncc(F)c3c(C(=O)C(=O)N4CCN(C(=O)c5ccccc5)CC4)c[nH]c23)n1.O=C([O-])C(F)(F)F" ? Thanks!
80

Could you please provide reported dose excreted at 2 h for "O=C(C(=O)N1CCN(C(=O)c2ccccc2)CC1)c1c[nH]c2c(-n3ccnn3)ncc(F)c12" ? Thanks!
3.5

###

Tested on: Rattus norvegicus
Assay: Cmax in bacitracin, neomycin sulfate and tetracycline treated Sprague-Dawley rat at 5 mg/kg, po
Format: ADME, organism-based
Set-up: dose 5 mg/kg, route oral
Conditions: in vivo
TEST_READOUT: Cmax (nM)
Note: unit nM is implicit; provide only the numeric part.

Could you please provide reported Cmax for "O=C(C(=O)N1CCN(C(=O)c2ccccc2)CC1)c1c[nH]c2c(-n3ccnn3)ncc(F)c12" ? Thanks!
18

###

Assay: AUC in dual cannulated portal vein Sprague-Dawley rat at 5 mg/kg, po
Format: ADME, organism-based
Parameters: dose 5 mg/kg, route oral
Conditions: plasma
TEST_READOUT: AUC (µM·h)
Note: unit µM·h is implicit; provide only the numeric part.

Could you please provide reported AUC for "N[n+]1ccn(-c2ncc(F)c3c(C(=O)C(=O)N4CCN(C(=O)c5ccccc5)CC4)c[nH]c23)n1.O=C([O-])C(F)(F)F" ? Thanks!
0.035

###

Experiment: AUClast in Sprague-Dawley rat at 5 mg/kg, po
Assay type: ADME, organism-based
Set-up: time 0 - last, dose 5 mg/kg, route oral
Conditions: plasma
TEST_READOUT: AUC(0-t) (µM·h)
Note: unit µM·h is implicit; provide only the numeric part.

Could you please provide reported AUC(0-t) for "O=C(C(=O)N1CCN(C(=O)c2ccccc2)CC1)c1c[nH]c2c(-n3ccnn3)ncc(F)c12" ? Thanks!
47.5

###

Experiment: Cmax in Sprague-Dawley rat at 200 mg/kg, po
Type: ADME, organism-based
Parameters: dose 200 mg/kg, route oral
Settings: in vivo
TEST_READOUT: Cmax (µM)
Note: unit µM is implicit; provide only the numeric part.

Could you please provide reported Cmax for "O=C(C(=O)N1CCN(C(=O)c2ccccc2)CC1)c1c[nH]c2c(-n3ccnn3)ncc(F)c12" ? Thanks!
11

###

Test system: Rattus norvegicus
Assay: Cmax in Sprague-Dawley rat assessed as BMS-585248 level at 5 mg/kg, po
Assay type: ADME, organism-based
Design: dose 5 mg/kg, route oral
Settings: in vivo
TEST_READOUT: Cmax (nM)
Note: unit nM is implicit; provide only the numeric part.

Could you please provide reported Cmax for "N[n+]1ccn(-c2ncc(F)c3c(C(=O)C(=O)N4CCN(C(=O)c5ccccc5)CC4)c[nH]c23)n1.O=C([O-])C(F)(F)F" ? Thanks!
1300

###

Tested on: Rattus norvegicus
Test: Cmax in Sprague-Dawley rat assessed as BMS-585248 level at 5 mg/kg, po after 6 hrs
Format: ADME, organism-based
Parameters: dose 5 mg/kg, route oral
Conditions: in vivo
TEST_READOUT: Cmax (µM)
Note: unit µM is implicit; provide only the numeric part.

Please tell me the measured Cmax for "N[n+]1ccn(-c2ncc(F)c3c(C(=O)C(=O)N4CCN(C(=O)c5ccccc5)CC4)c[nH]c23)n1.O=C([O-])C(F)(F)F" ; system: Rattus norvegicus.
3.12

###

Assay: Half life in Sprague-Dawley rat at 1 mg/kg, iv
Type: ADME, organism-based
Set-up: dose 1 mg/kg, route intravenous
Conditions: in vivo
TEST_READOUT: half-life (min)
Note: unit min is implicit; provide only the numeric part.

Could you please provide reported half-life for "N[n+]1ccn(-c2ncc(F)c3c(C(=O)C(=O)N4CCN(C(=O)c5ccccc5)CC4)c[nH]c23)n1.O=C([O-])C(F)(F)F" ? Thanks!
18

###

Experiment: AUC in Sprague-Dawley rat at 5 mg/kg, po
Assay type: ADME, organism-based
Set-up: dose 5 mg/kg, route oral
Conditions: plasma
TEST_READOUT: AUC

Could you please provide reported AUC for "N[n+]1ccn(-c2ncc(F)c3c(C(=O)C(=O)N4CCN(C(=O)c5ccccc5)CC4)c[nH]c23)n1.O=C([O-])C(F)(F)F" ? Thanks!
0.0208 µM·h

###

Assay: Cmax in beagle dog at 5 mg/kg, po
Type: ADME, organism-based, Canis lupus familiaris
Set-up: dose 5 mg/kg, route oral
Details: in vivo
TEST_READOUT: Cmax (nM)
Note: unit nM is implicit; provide only the numeric part.

Could you please provide reported Cmax for "N[n+]1ccn(-c2ncc(F)c3c(C(=O)C(=O)N4CCN(C(=O)c5ccccc5)CC4)c[nH]c23)n1.[Cl-]" ? Thanks!
139

###

Assay: Total AUC in Sprague-Dawley rat at 15 mg/kg, po
Settings: in vivo
TEST_READOUT: AUC (µM·h)
Note: unit µM·h is implicit; provide only the numeric part.

Could you please provide reported AUC for "O=C(C(=O)N1CCN(C(=O)c2ccccc2)CC1)c1c[nH]c2c(-n3ccnn3)ncc(F)c12" ? Thanks!
42

###

Experiment: Clearance in Sprague-Dawley rat at 1 mg/kg, iv
Type: ADME, organism-based
Set-up: dose 1 mg/kg, route intravenous
Conditions: in vivo
TEST_READOUT: clearance (mL/min/kg)
Note: unit mL/min/kg is implicit; provide only the numeric part.

Could you please provide reported clearance for "N[n+]1ccn(-c2ncc(F)c3c(C(=O)C(=O)N4CCN(C(=O)c5ccccc5)CC4)c[nH]c23)n1.O=C([O-])C(F)(F)F" ? Thanks!
23

###

Test: Aqueous solubility of the compound
Format: physicochemical
TEST_READOUT: solubility (µg/mL)
Note: unit µg/mL is implicit; provide only the numeric part.

Could you please provide reported solubility for "N[n+]1ccn(-c2ncc(F)c3c(C(=O)C(=O)N4CCN(C(=O)c5ccccc5)CC4)c[nH]c23)n1.[Cl-]" ? Thanks!
1760
